tested on: chickweed (common chickweed, Stellaria media); assay: Test C greenhouse herbicide test, postemergence; format: in vivo; conditions: Postemergence, 31 g ai/ha; 0 to 100 scale (0 no effect, 100 complete control)
Entries annotated with measured Chickweed plant response rating
Kindly provide the number alone.

Known results for compounds:
1) Cc1ccc2ccc(C)c(-c3c(O)c(C)nn(C)c3=O)c2c1
90
2) Cc1cc(C)c2sc(C)c(-c3c(OC(=O)OCCCl)c(C)nn(C)c3=O)c2c1
90
3) COc1nn(C)c(=O)c(-c2c(C)sc3ccc(Cl)cc23)c1O
90
4) CC(=O)Oc1c(C)nn(C)c(=O)c1-c1c(C)sc2ccc(C)cc12
90

# next compound below
# input Look up Chickweed plant response rating: Cc1ccc(-c2c(O)c(Br)nn(C)c2=O)c2ccccc12
# output 95

---

system: blackgrass (Alopecurus myosuroides); assay: Test A greenhouse herbicide test, postemergence; format: in vivo; conditions: 500 g ai/ha, visual rating after approx. 10 d, 0 to 100 scale (0 no effect, 100 complete control)
// NB: equality with 60 counts as label 0; only Plant response rating, Blackgrass strictly below is label 1

For orientation, consider the following solved cases.
1. COC(=O)Cn1nc(C)c(O)c(-c2cccc3ccccc23)c1=O [Compound 172]
label 1
2. Cc1cc(C)c2ccccc2c1-c1c(OS(C)(=O)=O)c(C)nn(C)c1=O [Compound 154]
label 0
3. Cc1ccc2sc(C)c(-c3c(OCC#N)c(C)nn(C)c3=O)c2c1 [Compound 160]
label 1
4. CC(=O)Oc1ccc2cccc(-c3c(OC(C)=O)c(C)nn(C)c3=O)c2c1 [Compound 124]
label 1
5. COc1nn(C)c(=O)c(-c2c(C)ccc3ccccc23)c1OC(C)=O [Compound 138]
label 0

# input Given CCC(=O)Oc1c(C)nn(C)c(=O)c1-c1c(C(F)(F)F)ccc2ccccc12 [Compound 147] , is recorded Plant response rating, Blackgrass strictly lower than 60?
# output label 0

# input Dear colleague, could you confirm whether Plant response rating, Blackgrass of CC(=O)Oc1c(C)nn(C)c(=O)c1-c1c([N+](=O)[O-])ccc2ccccc12 [Compound 164] falls below 60? Thanks.
# output label 1

# input Report whether reported Plant response rating, Blackgrass is lower than 60 (strictly) for Cc1nn(C)c(=O)c(-c2cc(F)cc3ccccc23)c1OS(C)(=O)=O [Compound 115]
# output label 0

---

As shown below, each of these compounds has a reported Plant response rating, Field Bindweed value.
tested on: field bindweed (Convolvulus arvensis); assay: Test E greenhouse herbicide test, pre- and postemergence; type: in vivo; conditions: Preemergence, 250 g ai/ha; visual, scale 0 no effect to 100 complete control
API note: the answer field is a bare number with no unit suffix.

1. C#CCOC(=O)Oc1c(C)nn(C)c(=O)c1-c1c(C)sc2ccc(C)cc12
100
2. CCOC(=O)Oc1c(C)nn(C)c(=O)c1-c1c(C)sc2c(C)cc(C)cc12
100

# input Can you look up the measured Plant response rating, Field Bindweed of CC(=O)Oc1c(C)nn(C)c(=O)c1-c1c(C)sc2ccc(C)cc12 for me?
# output 98

# input For Cc1ccc2sc(C)c(-c3c(O)c(C)nn(C)c3=O)c2c1 , what is its reported Plant response rating, Field Bindweed?
# output 100

# input Entry CC(=O)Oc1c(C)nn(C)c(=O)c1-c1c(C)cc(C)c2ccccc12 has what Plant response rating, Field Bindweed?
# output 100
